For each of the compounds below, state its Ligand Efficiency (LE) Human (hMtase).
- ASSAYED TARGET: human Glycine N-Methyltransferase (GNMT) (Homo sapiens, UniProt Q14749)
- Construct: purchased MyBioSource MBS636160
- Sequence (Q14749 whole entry): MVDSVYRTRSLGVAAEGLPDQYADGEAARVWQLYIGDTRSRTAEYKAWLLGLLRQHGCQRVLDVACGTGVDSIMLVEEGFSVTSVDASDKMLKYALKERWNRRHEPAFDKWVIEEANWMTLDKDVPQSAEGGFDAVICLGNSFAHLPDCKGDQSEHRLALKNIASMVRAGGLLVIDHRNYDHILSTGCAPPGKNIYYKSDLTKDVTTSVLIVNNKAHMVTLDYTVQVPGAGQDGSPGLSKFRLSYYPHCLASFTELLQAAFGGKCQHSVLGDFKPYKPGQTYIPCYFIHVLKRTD
- EXPERIMENT NOTES: HTRF methyltransferase selectivity assay, human GNMT
- Assay type: biochemical
- MEASUREMENT SETUP: estimated from IC50 values
Number only, in kcal/mol; omit the unit.

Short answer please: Ligand Efficiency (LE) Human (hMtase), human Glycine N-Methyltransferase (GNMT) (Homo sapiens, UniProt Q14749), entry O=C(CCCn1cncn1)N1CCCC(c2nc3ccccc3s2)C1 (stereo not shown)
0.20

Let us now turn to Nc1ncnc2c1ncn2[C@@H]1O[C@H](CSCC[C@H](N)C(=O)O)[C@@H](O)[C@H]1O [S-(5′-Adenosyl)-L-homocysteine (SAH), S-(5′-Adenosyl)-L-homocysteine, reference compound]
0.28

Let us now turn to Cc1nc(O)cc(CNc2nc3c(c(=O)[nH]2)Cc2ccccc2OC3)n1
0.22

Let us now turn to O=C(Cn1c(=O)[nH]c2c(-c3ccccc3)c[nH]c2c1=O)NCc1cccnc1
0.19
